Listing: IC50, splenocyte assay, 3.8 pM cIL-23 of selected binders
- assayedTarget: cynomolgus IL-23 (cynomolgus)
- assayProcedure: cell-based or functional assay

{"binder": "P23IL20B11-9GS-ALB1-9GS-37D5 (bispecific antibody, part only; not given: anti-albumin Nanobody, part only) chain, part: EVQLVESGGGLVQAGGSLRLSCAVSGDTFSVYGMGWFRQAPGMEREFVAGISWNAGITAYTDTLKGRFTISRDRAKNTMYLQMNSLQPEDTAVYYCAADVTRHYIATRSKVDASMYDYWGQGTQVTVSSGGGGSGGGSGGGGSGGGSEVQLVESGGGLVQPGGSLRLSCAASGFTLDYLAIGWFRQAPGKEREGVSCVSSSGQYTYYADSVKGRFTISRDNAESTVYLQMNSLKPEDTAVYYCATDPECYRVRGYYNGEYDYWGQGTQVTVSS", "IC50, splenocyte assay, 3.8 pM cIL-23 / pM": 8.59}
{"binder": "P23IL119A3-9GS-ALB1-9GS-81A12 (bispecific antibody, part only; not given: anti-albumin Nanobody, part only) chain, part: EVQLVESGGGLVQAGGSLRLSCAASGRIFSLPASGNIFNLLTIAWHRQAPGMQRELVATINSGSRTNYADSVKGRFTISRDNAQKTVYLQMNNLKPEDTAVYYCQTSGSGSPNFWGQGTQVTVSSGGGGSGGGSGGGGSGGGSEVQLVESGGGLVQAGGSLRLSCAASGRTLSSYAMGWFRQAPGKEREFVARISQGGTAIYYADSVKGRFTISRDNAKNTVYLQMNSLKPEDTAVYYCAKDPSPYYRGSAYLLSGSYDSWGQGTQVTVSS", "IC50, splenocyte assay, 3.8 pM cIL-23 / pM": 3.3}
{"binder": "P23IL119A3-9GS-ALB1-9GS-81G2 (bispecific antibody, part only; not given: anti-albumin Nanobody, part only) chain, part: EVQLVESGGGLVQAGGSLRLSCAASGRIFSLPASGNIFNLLTIAWHRQAPGMQRELVATINSGSRTNYADSVKGRFTISRDNAQKTVYLQMNNLKPEDTAVYYCQTSGSGSPNFWGQGTQVTVSSGGGGSGGGSGGGGSGGGSEVQLVESGGGLVQPGGSLRLSCIASGLPFSTKSMGWFRQAPGKEREFVARISPGGTSRYYGDFVKGRFAISRDNAKNTTWLQMNSLKAEDTAVYYCASGERSTYIGSNYYRTNEYDYWGTGTQVTVSS", "IC50, splenocyte assay, 3.8 pM cIL-23 / pM": 3}
{"binder": "P23IL119A3V16-9GS-ALB8-9GS-81A12V4 (bispecific antibody, part only; not given: anti-albumin Nanobody, part only) chain, part: EVQLLESGGGLVQPGGSLRLSCAASGRIFSLPASGNIFNLLTIAWYRQAPGKGRELVATINSGSRTYYADSVKGRFTISRDNSKKTLYLQMNSLRPEDTAVYYCQTSGSGSPNFWGQGTLVTVSSGGGGSGGGSGGGGSGGGSEVQLLESGGGLVQPGGSLRLSCAASGRTLSSYAMGWFRQAPGKGREFVSRISQGGTAIYYADSVKGRFTISRDNSKNTLYLQMNSLRPEDTAVYYCAKDPSPYYRGSAYLLSGSYDSWGQGTLVTVSS", "IC50, splenocyte assay, 3.8 pM cIL-23 / pM": 6.7}
